# Test system: human M4 receptor (Homo sapiens, UniProt P08173)
# Construct: expressed in transfected cells; host or cells: CHO cells
# Sequence (P08173 1-479): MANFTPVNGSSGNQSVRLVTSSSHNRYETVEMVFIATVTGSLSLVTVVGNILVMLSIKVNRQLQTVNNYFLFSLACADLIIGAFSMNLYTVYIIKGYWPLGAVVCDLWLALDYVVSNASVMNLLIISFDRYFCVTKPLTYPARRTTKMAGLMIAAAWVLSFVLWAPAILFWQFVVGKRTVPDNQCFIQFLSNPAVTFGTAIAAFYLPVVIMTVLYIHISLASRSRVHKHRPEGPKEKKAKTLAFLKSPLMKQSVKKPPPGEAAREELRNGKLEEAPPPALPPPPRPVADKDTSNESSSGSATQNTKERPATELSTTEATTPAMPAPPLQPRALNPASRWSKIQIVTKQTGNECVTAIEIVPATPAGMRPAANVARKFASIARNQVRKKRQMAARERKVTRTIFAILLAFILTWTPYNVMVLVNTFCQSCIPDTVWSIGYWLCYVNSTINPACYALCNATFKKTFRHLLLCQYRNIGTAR
# Assay explanation: Radioligand ([3H]N-methylscopolamine) binding assay, membranes from CHO cells expressing human M4 receptor
# Settings: Ki against human M4 receptor; membranes from CHO cells; tritiated N-methylscopolamine 1.5 nM; read-out: K
Parameter: Ki

item_smiles=CC(C)c1cnc(N2C[C@@H](C)N(C(=O)OC3CC4(C3)CN(Cc3ccccc3)C4)[C@@H](C)C2)nc1 value="< 10 nM"
item_smiles=C[C@@H]1CN(c2ncc(C(F)(F)F)cn2)C[C@H](C)N1C(=O)OC1CC2(C1)CN(Cc1ccccc1)C2 value="< 10 nM"
item_smiles=C[C@@H]1CN(c2cnc(C(F)(F)F)cn2)C[C@H](C)N1C(=O)NC1CC2(C1)CN(Cc1ccccc1)C2 value="10 to 100 nM"
item_smiles=C[C@@H]1CN(c2ncc(C#N)cn2)C[C@H](C)N1C(=O)NC1CC2(C1)CN(Cc1ccc(Cl)cc1)C2 value="10 to 100 nM"
item_smiles=C[C@@H]1CN(c2nc3cc(F)ccc3o2)C[C@@H](C)N1C(=O)OC1CC2(C1)CN(Cc1ccccc1)C2 value="100 to 1000 nM"
item_smiles=N#Cc1cc(C(F)(F)F)ccc1N1CCN(C(=O)OC2CC3(C2)CN(Cc2ccccc2)C3)CC1 value="100 to 1000 nM"
item_smiles=C[C@@H]1CN(c2cncc(C(F)(F)F)n2)[C@@H](C)CN1C(=O)OC1CC2(C1)CN(Cc1ccccc1)C2 value="100 to 1000 nM"
item_smiles=C[C@@H]1CN(c2cnc3ccccc3n2)C[C@@H](C)N1C(=O)OC1CC2(C1)CN(Cc1ccccc1)C2 value="100 to 1000 nM"
item_smiles=O=C(OC1CC2(C1)CN(Cc1ccccc1)C2)N1CCN(c2ccc(C(F)(F)F)cc2)CC1 value="100 to 1000 nM"
item_smiles=COc1ccc2nc(N3C[C@@H](C)N(C(=O)OC4CC5(C4)CN(Cc4ccccc4)C5)[C@@H](C)C3)cnc2c1 value="10 to 100 nM"

Q: Hi! What's the reported Ki for C[C@@H]1CN(c2ncc(C(F)(F)F)cn2)[C@H](C)CN1C(=O)NC1CC2(C1)CN(Cc1ccccc1)C2 on human M4 receptor (Homo sapiens, UniProt P08173)?
A: 10 to 100 nM

Q: Hi! What's the reported Ki for C[C@@H]1CN(c2ccc(C(F)(F)F)cc2)[C@@H](C)CN1C(=O)OC1CC2(C1)CN(Cc1ccccc1)C2 on human M4 receptor (Homo sapiens, UniProt P08173)?
A: < 10 nM

Q: Hi! What's the reported Ki for C[C@@H]1CN(c2ncc(C(F)(F)F)cn2)C[C@H](C)N1C(=O)OC1(C(F)F)CC2(CN(Cc3ccccc3)C2)C1 on human M4 receptor (Homo sapiens, UniProt P08173)?
A: 10 to 100 nM

Q: Hi! What's the reported Ki for C[C@@H]1CN(c2ncc(C#N)cn2)[C@@H](C)CN1C(=O)OC1CC2(C1)CN(Cc1ccccc1)C2 on human M4 receptor (Homo sapiens, UniProt P08173)?
A: 10 to 100 nM
